Biological target: CDK2-cycline E (Homo sapiens)
Assay: Kinase assay (radioactive phosphate incorporation), CDK2-cyclin E
Assay type: biochemical
Details: read-out: Kinase Inhibition pIC50 CDK2-cycline E (converted)
Protocol: Kinase assays. The compounds of the invention above were investigated for their ability to inhibit the enzymatic activity of various protein kinases (Table 2). This was achieved by measurement of incorporation of radioactive phosphate from ATP into appropriate polypeptide substrates. […] After washing 3 times with 75 mM aq orthophosphoric acid, plates were dried, scintillant added and incorporated radioactivity measured in a scintillation counter (TopCount, Packard Instruments, Pangbourne, Berks, UK). […]
outcome measure: IC50 (nM)

compound: Cc1nc(C)c(-c2ccnc(Nc3ccc(N4CCOCC4)c(C)c3)n2)s1 [Compound 220]
study system: CDK2-cycline E (Homo sapiens)
unit descriptor: nM
IC50: 1260

compound: COc1cc(Nc2nccc(-c3sc(N)nc3C)n2)cc(OC)c1OC [Compound 168]
study system: CDK2-cycline E (Homo sapiens)
unit descriptor: nM
IC50: 398

compound: Cc1nc(C)c(-c2ccnc(Nc3cccc(CNC(=O)c4ccccn4)c3)n2)s1 [Compound 91]
study system: CDK2-cycline E (Homo sapiens)
unit descriptor: nM
IC50: 398

compound: Cc1nc(C)c(-c2ccnc(Nc3cccc(CNC(=O)c4ccccc4)c3)n2)s1 [Compound 9]
study system: CDK2-cycline E (Homo sapiens)
unit descriptor: nM
IC50: 158

compound: CC(=O)NCc1cccc(Nc2nccc(-c3sc(-c4cccnc4)nc3C)n2)c1 [Compound 101]
study system: CDK2-cycline E (Homo sapiens)
unit descriptor: nM
IC50: 1260

(I) Cc1nc(N)sc1-c1ccnc(Nc2cccc(S(=O)(=O)N3CCOCC3)c2)n1 [Compound 81]
(II) Cc1nc(N)sc1-c1ccnc(Nc2ccc(N3CCNCC3)cc2)n1 [Compound 61]
(III) Cc1nc(C)c(-c2ccnc(Nc3ccc(N4CCN(Cc5ccccc5)CC4)cc3)n2)s1 [Compound 114]
(IV) Cc1nc(C)c(-c2ccnc(Nc3cccc(N4CCNCC4)c3)n2)s1 [Compound 8]
Please list the entries, largest IC50 first. // ordering of labels required in reply
I, IV, III, II
(I: 3160 nM, IV: 2000 nM, III: 1260 nM, II: 398 nM)
